The origin of these recorded values is patent EP1247803A2.

Catalogue of Fik Kinase %Inhibition values
target: FLK-1 receptor (Mus musculus, UniProt P35918); construct: expressed in transfected cells; host or cells: NIH3T3 C7#3; assay: FLK-1 ELISA (kinase activity of the FLK-1 receptor in FLK-1/NIH3T3 cells, VEGF stimulated); assay type: cell-based
Sequence (P35918 20-1345): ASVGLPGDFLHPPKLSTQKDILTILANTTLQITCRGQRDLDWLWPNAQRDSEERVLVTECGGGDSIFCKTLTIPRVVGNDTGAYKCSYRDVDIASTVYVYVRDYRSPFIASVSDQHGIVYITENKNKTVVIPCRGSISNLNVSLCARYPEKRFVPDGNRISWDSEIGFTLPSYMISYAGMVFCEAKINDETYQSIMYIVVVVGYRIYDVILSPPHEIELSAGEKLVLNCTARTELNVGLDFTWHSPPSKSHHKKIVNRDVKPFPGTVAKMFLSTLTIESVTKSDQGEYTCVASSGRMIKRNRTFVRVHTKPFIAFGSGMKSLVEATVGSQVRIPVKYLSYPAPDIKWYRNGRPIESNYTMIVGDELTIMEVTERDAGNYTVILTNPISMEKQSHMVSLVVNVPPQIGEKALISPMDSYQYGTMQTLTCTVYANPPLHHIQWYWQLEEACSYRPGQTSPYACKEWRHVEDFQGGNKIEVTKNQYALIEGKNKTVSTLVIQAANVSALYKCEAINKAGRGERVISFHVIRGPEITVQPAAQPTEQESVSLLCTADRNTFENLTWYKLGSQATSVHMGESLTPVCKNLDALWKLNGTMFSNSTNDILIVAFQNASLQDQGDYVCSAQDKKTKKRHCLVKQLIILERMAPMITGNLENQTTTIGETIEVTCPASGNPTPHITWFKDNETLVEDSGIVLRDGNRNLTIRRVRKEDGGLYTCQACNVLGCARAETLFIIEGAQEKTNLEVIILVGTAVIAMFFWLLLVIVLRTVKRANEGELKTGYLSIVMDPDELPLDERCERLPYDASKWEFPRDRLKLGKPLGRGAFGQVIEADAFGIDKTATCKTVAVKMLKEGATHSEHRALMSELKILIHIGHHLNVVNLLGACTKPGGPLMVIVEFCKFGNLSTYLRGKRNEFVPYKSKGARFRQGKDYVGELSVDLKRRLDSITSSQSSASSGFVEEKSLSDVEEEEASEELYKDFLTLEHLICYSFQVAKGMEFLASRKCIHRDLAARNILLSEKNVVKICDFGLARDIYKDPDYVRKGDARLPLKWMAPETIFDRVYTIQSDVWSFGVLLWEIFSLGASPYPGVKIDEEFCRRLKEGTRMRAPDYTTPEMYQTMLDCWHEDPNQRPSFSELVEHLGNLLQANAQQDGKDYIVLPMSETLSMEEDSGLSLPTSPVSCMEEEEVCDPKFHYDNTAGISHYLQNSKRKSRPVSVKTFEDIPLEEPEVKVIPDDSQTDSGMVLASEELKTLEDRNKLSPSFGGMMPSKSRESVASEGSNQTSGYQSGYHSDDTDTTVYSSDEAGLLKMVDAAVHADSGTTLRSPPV
Only the number, expressed in %, is required.

Solved entries:
N#Cc1cccc(C=C2C(=O)Nc3c(Br)cc(Br)cc32)c1: -0.6
Cc1cc(C=C2C(=O)Nc3ccc(S(=O)(=O)N4CCOCC4)cc32)cc(C(C)(C)C)c1O: 31.5
O=C1Nc2ccc(S(=O)(=O)N3CCOCC3)cc2C1=Cc1ccc(F)cc1: 3.2
CNS(=O)(=O)c1ccc2c(c1)C(=Cc1cccn1-c1ccc(Cl)cc1)C(=O)N2: 0.9

Query: Value lookup for Fik Kinase %Inhibition; key = `Cc1c(Br)ccc2c1C(=Cc1ccc(O)c(O)c1O)C(=O)N2`
Result: 9.6

Query: Can you look up the measured Fik Kinase %Inhibition of `CCOC(=O)CCc1c(C(=O)OCC)[nH]c(C=C2C(=O)Nc3ccc(CCCl)cc32)c1CC(=O)OCC` for me?
Result: 3.7

Query: // lookup Fik Kinase %Inhibition for `Cc1csc2sc(C=C3C(=O)Nc4ccc(I)cc43)c(C)c12`
Result: 9.0

Query: Which Fik Kinase %Inhibition is reported for this molecule? `Cc1c(Br)ccc2c1C(=Cc1cc(Cl)c(OCc3ccccc3)c(C(C)(C)C)c1)C(=O)N2`
Result: 15.1

Query: Recorded Fik Kinase %Inhibition for `O=C1Nc2ccc(S(=O)(=O)Nc3ccc(C(F)(F)F)cc3)cc2C1=Cc1ccc(Cl)s1` , please?
Result: 15.6

Query: What does the data say about its Fik Kinase %Inhibition? Entry: `Cn1c(C=C2C(=O)Nc3ccc(S(=O)(=O)Nc4ccc(C(F)(F)F)cc4)cc32)nc2ccccc21`
Result: 17.2

Query: Look up Fik Kinase %Inhibition for this molecule: `COc1ccc(OC)c(C=C2C(=O)Nc3ccc(S(=O)(=O)NN4CCOCC4)cc32)c1`
Result: 2.9

Query: Sample `Cc1cc(C=C2C(=O)Nc3ccc(S(=O)(=O)Nc4ccc(C(F)(F)F)cc4)cc32)ccc1O` — what was its Fik Kinase %Inhibition?
Result: 19.3

Query: I am curious: what Fik Kinase %Inhibition value has been reported for `Cc1c(Br)ccc2c1C(=Cc1ccc(O)cc1O)C(=O)N2` ?
Result: -35.5

Query: Please give the measured Fik Kinase %Inhibition for this molecule: `Cc1c(Br)ccc2c1C(=Cc1ccco1)C(=O)N2`
Result: -11.9

Query: What does the data say about its Fik Kinase %Inhibition? Entry: `Cc1c(O)ccc(C=C2C(=O)Nc3ccc(Br)c(C)c32)c1O`
Result: 5.3

Query: What does the record list as Fik Kinase %Inhibition for `O=C1Nc2ccc(S(=O)(=O)Nc3ccc(C(F)(F)F)cc3)cc2C1=Cc1cc(Cl)cc(Cl)c1O` ?
Result: 26.9

Query: What does the data say about its Fik Kinase %Inhibition? Entry: `O=C1Nc2ccc(S(=O)(=O)Nc3ccc(C(F)(F)F)cc3)cc2C1=Cc1ccco1`
Result: 15.2

Query: Which Fik Kinase %Inhibition value is on record for `COc1cccc(C=C2C(=O)Nc3ccc(Br)c(C)c32)c1OC` ?
Result: -25.6
